- study_system: neutral endopeptidase (recombinant NEP) (Homo sapiens, UniProt P08473)
- Sequence (P08473 whole entry, species assumed): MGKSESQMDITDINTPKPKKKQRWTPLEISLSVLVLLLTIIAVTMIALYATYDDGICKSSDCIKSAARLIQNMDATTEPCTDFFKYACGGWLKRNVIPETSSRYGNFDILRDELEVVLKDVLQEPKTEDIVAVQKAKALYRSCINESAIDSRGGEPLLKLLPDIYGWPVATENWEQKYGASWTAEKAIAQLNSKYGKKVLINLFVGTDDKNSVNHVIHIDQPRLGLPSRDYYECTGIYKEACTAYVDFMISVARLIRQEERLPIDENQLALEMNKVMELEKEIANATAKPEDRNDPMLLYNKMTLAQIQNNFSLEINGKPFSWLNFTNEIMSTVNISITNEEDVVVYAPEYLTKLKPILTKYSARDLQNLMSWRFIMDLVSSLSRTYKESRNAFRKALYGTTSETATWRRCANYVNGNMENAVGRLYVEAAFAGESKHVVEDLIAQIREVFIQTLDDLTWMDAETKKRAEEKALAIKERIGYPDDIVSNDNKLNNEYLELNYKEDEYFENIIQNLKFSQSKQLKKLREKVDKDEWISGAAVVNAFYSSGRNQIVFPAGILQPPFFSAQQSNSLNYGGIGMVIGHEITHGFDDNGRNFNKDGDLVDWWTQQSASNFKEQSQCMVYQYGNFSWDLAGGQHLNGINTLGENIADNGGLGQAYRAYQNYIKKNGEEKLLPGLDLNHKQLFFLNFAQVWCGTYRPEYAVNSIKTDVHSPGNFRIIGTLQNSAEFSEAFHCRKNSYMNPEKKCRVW
- test_name: Fluorometric assay of recombinant NEP inhibition
- Assay type: biochemical
Square brackets hold non-standard residues; d marks the D form. Peptide text beside a SMILES is read from it. pGlu = O=C1CC[C@@H](C(=O)O)N1
measurement_name: Ki (µM)

compound: CC[C@H](C)[C@H](NC(=O)[C@H](CCC(=O)O)NC(=O)[C@@H]1CCCN1C(=O)CNC(=O)[C@@H]1CCCN1C(=O)[C@H](CCCNC(=N)N)NC(=O)[C@@H]1CCCN1C(=O)[C@H](Cc1c[nH]c2ccccc12)NC(=O)CNC(=O)CNC(=O)[C@@H]1CCC(=O)N1)C(=O)N1CCC[C@H]1C(=O)N1CCC[C@H]1C(=O)O [EVASIN-13a, <EGGWPRPGPEIPP] ([pGlu]GGWPRPGPEIPP-OH; C-terminus assumed)
measured_result: 473

compound: CC[C@H](C)[C@H](NC(=O)[C@@H]1CCCN1C(=O)[C@@H]1CCCN1C(=O)[C@H](Cc1c[nH]cn1)NC(=O)[C@@H]1CCCN1C(=O)[C@H](C)NC(=O)[C@H](CCCNC(=N)N)NC(=O)CNC(=O)[C@@H]1CCC(=O)N1)C(=O)N1CCC[C@H]1C(=O)N1CCC[C@H]1C(=O)O [EVASIN-11c, <EGRAPHPPIPP] ([pGlu]GRAPHPPIPP-OH; C-terminus assumed)
measured_result: 589

compound: CC[C@H](C)[C@H](NC(=O)[C@H](CCC(N)=O)NC(=O)[C@@H]1CCCN1C(=O)[C@H](CCCNC(=N)N)NC(=O)[C@@H]1CCCN1C(=O)[C@H](Cc1c[nH]c2ccccc12)NC(=O)[C@H](C)NC(=O)[C@H](Cc1c[nH]c2ccccc12)NC(=O)CNC(=O)[C@@H]1CCC(=O)N1)C(=O)N1CCC[C@H]1C(=O)N1CCC[C@H]1C(=O)O [EVASIN-12a, <EGWAWPRPQIPP] ([pGlu]GWAWPRPQIPP-OH; C-terminus assumed)
measured_result: 106

compound: CC[C@H](C)[C@H](NC(=O)[C@H](CCC(N)=O)NC(=O)[C@@H]1CCCN1C(=O)[C@H](Cc1c[nH]cn1)NC(=O)[C@@H]1CCCN1C(=O)[C@H](Cc1c[nH]c2ccccc12)NC(=O)[C@H](CC(N)=O)NC(=O)[C@@H]1CCC(=O)N1)C(=O)N1CCC[C@H]1C(=O)N1CCC[C@H]1C(=O)O [EVASIN-10c, <ENWPHPQIPP] ([pGlu]NWPHPQIPP-OH; C-terminus assumed)
measured_result: 253

compound: CC[C@H](C)[C@H](NC(=O)[C@@H]1CCCN1C(=O)[C@@H]1CCCN1C(=O)CNC(=O)[C@@H]1CCCN1C(=O)[C@@H]1CCCN1C(=O)[C@H](CCCNC(=N)N)NC(=O)CNC(=O)[C@H](Cc1c[nH]c2ccccc12)NC(=O)[C@@H]1CCC(=O)N1)C(=O)N1CCC[C@H]1C(=O)N1CCC[C@H]1C(=O)O [EVASIN-12b, <EWGRPPGPPIPP] ([pGlu]WGRPPGPPIPP-OH; C-terminus assumed)
measured_result: 150

compound: CC[C@H](C)[C@H](NC(=O)[C@@H]1CCCN1C(=O)[C@@H]1CCCN1C(=O)CNC(=O)[C@@H]1CCCN1C(=O)[C@H](C)NC(=O)[C@H](CCCNC(=N)N)NC(=O)CNC(=O)[C@@H]1CCC(=O)N1)C(=O)N1CCC[C@H]1C(=O)N1CCC[C@H]1C(=O)O [EVASIN-11b, <EGRAPGPPIPP] ([pGlu]GRAPGPPIPP-OH; C-terminus assumed)
measured_result: 476

The measurements presented in this section are drawn from patent US20080199503A1.
